src = patent US10927178B2

- target.of.assay: T1, human CXCR4-enriched lipoparticles (Homo sapiens, UniProt P61073)
- T1 construct: purchased Integral Molecular, Philadelphia Pa; LEV101
- experiment.summary: Biosensor affinity measurement of Fabs on CXCR4-enriched lipoparticles
- Format: binding
- condition.set: Fab; kinetic titration
Parameter: Ka (1/MS). Scope: all listed entries.

| molecule | Ka (1/MS) |
| --- | --- |
| h3G10.A57 VH/h3G10.A58A VL: Fab; VH SEQ ID NO:23, VL SEQ ID NO:57 (antibody, V domains shown, Fab) VH: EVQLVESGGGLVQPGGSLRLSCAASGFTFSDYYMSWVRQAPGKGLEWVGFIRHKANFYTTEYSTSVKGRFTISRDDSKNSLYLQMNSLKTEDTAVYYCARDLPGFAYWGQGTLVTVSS VL: DIVMTQSPDSLAVSLGERATINCKSSQSLFNSHTRKNYLAWYQQKPGQPPKLLIYWASARGSGVPDRFSGSGSGTDFTLTISSLQAEDVAVYYCKQSFRLRTFGGGTKVEIK | 1.60E+06 1/MS |
| h3G10.A57 VH/h3G10.2.72 VL: Fab; VH SEQ ID NO:23, VL SEQ ID NO:49 (antibody, V domains shown, Fab) VH: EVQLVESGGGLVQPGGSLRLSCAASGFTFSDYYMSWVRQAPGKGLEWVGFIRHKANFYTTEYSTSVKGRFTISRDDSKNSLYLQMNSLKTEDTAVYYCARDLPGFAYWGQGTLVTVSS VL: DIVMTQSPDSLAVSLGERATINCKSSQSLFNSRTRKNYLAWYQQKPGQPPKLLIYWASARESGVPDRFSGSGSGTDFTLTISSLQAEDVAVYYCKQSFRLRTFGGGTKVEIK | 1.10E+06 1/MS |
| h3G10.2.37 VH/h3G10.A58B VL: Fab; VH SEQ ID NO:35, VL SEQ ID NO:73 (antibody, V domains shown, Fab) VH: EVQLVESGGGLVQPGGSLRLSCAASGFTFSDYYMSWVRQAPGKGLEWVGFIRHKANFYTREYSTSVKGRFTISRDDSKNSLYLQMNSLKTEDTAVYYCARDLPGFAYWGQGTLVTVSS VL: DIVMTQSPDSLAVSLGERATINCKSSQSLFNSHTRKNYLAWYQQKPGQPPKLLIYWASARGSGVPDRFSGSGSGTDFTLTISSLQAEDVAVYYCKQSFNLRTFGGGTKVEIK | 7.97E+05 1/MS |
| h3G10.1.91 VH/h3G10.A58A VL: Fab; VH SEQ ID NO:33, VL SEQ ID NO:57 (antibody, V domains shown, Fab) VH: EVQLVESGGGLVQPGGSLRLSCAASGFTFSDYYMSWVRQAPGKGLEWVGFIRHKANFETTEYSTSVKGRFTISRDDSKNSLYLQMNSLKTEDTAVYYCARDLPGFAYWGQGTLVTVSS VL: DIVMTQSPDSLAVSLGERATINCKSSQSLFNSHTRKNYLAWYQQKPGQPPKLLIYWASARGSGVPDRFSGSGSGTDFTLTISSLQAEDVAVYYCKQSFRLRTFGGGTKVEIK | 9.08E+05 1/MS |
